target: Go (Bos taurus); construct: proteins were extracted from bovine cerebral cortical membranes; from tissue; host or cells: bovine brain (cerebral cortical membranes); experiment: steady state GTPase activity of Go in phospholipid vesicles; type: biochemical, bovine; details: 10 μg/ml amine; 15 min at 20° C.; PE/PC/PS vesicles
Entries annotated with measured Turnover number Go 10 μg/ml
propertyMeasured: Turnover number Go 10 μg/ml

[[record]]
molecule = "CCCCCCCCCCCCCCCCCC[N+](C)(C)C.[Cl-] [C18 Me3 NCl, reference compound]"
propertymeasured = "Turnover number Go 10 μg/ml"
measuredvalue = "0.61 min⁻¹"

[[record]]
molecule = "CCCCCCCCCCCCCCCC[N+](C)(C)Cc1ccccc1.[Cl-] [BAC (C16 ), reference compound]"
propertymeasured = "Turnover number Go 10 μg/ml"
measuredvalue = "1.4 min⁻¹"

[[record]]
molecule = "CCCCCCCCCCCC[N+](C)(C)C.[Cl-] [C12 Me3 NCl, reference compound]"
propertymeasured = "Turnover number Go 10 μg/ml"
measuredvalue = "0.1 min⁻¹"

[[record]]
molecule = "CCCCCCCCCCCCCCCCCC[N+](C)(C)Cc1ccccc1.[Cl-] [BAC (C18 ), reference compound]"
propertymeasured = "Turnover number Go 10 μg/ml"
measuredvalue = "1.1 min⁻¹"

[[record]]
molecule = "CCCCCCCCCCCCC[N+](C)(C)Cc1ccccc1 [BAC (C-12), benzalkonium chloride]"
propertymeasured = "Turnover number Go 10 μg/ml"
measuredvalue = "0.33 min⁻¹"

[[record]]
molecule = "CCCC[N+](CCCC)(CCCC)Cc1ccccc1.[Cl-] [BzBu3 NCl, reference compound]"
propertymeasured = "Turnover number Go 10 μg/ml"
measuredvalue = "0.07 min⁻¹"

[[record]]
molecule = "CCCCCCCCCCCCCC[N+](C)(C)Cc1ccccc1.[Cl-] [BAC (C14), reference compound]"
propertymeasured = "Turnover number Go 10 μg/ml"
measuredvalue = "0.9 min⁻¹"

[[record]]
molecule = "CCCCCCCCCCCCN"
propertymeasured = "Turnover number Go 10 μg/ml"
measuredvalue = "0.18 min⁻¹"


---

target: Go (Bos taurus, UniProt P08239); construct: proteins were extracted from bovine cerebral cortical membranes; assay: steady state GTPase activity of Go in phospholipid vesicles
Sequence (P08239 2-354 limits assumed): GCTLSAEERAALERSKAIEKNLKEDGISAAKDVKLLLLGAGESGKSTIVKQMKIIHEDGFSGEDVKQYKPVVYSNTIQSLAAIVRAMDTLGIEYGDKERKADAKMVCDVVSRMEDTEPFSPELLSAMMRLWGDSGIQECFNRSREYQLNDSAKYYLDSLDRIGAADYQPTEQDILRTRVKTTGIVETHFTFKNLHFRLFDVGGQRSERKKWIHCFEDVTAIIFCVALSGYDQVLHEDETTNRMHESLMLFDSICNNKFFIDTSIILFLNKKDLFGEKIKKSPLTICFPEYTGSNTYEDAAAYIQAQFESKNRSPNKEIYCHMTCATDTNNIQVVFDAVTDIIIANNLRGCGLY
Sequence (P62871 2-340 partner limits assumed): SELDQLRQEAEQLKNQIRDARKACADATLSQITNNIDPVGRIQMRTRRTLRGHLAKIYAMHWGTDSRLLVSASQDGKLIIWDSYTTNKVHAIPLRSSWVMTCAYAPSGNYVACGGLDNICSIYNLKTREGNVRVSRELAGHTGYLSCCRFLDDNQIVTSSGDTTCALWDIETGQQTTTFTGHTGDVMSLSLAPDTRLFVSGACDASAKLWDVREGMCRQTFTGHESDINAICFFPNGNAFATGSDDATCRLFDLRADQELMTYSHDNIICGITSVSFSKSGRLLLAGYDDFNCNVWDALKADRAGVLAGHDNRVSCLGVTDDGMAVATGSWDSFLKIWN
Sequence (P63212 2-68 partner limits assumed): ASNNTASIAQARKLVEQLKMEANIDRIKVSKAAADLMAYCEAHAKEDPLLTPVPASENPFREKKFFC
Where a SMILES comes first, the peptide text is derived from it. The star is where a group is joined. Dodecyl = CCCCCCCCCCCC*
propertyMeasured: EC50

[[record]]
molecule = "CCCCCCCCCCCCSC[C@H](NC(=O)[C@@H](NC(=O)[C@@H](NC(=O)CNC(=O)[C@H](CC(C)C)NC(=O)[C@@H](NC(=O)[C@H](CCCCN)NC(=O)[C@H](CC(C)C)NC(=O)[C@H](C)NC(=O)[C@H](CCCCN)NC(=O)[C@H](Cc1c[nH]cn1)NC(=O)[C@H](CCC(=O)O)NC(=O)[C@@H](N)CCCNC(=N)N)[C@@H](C)O)[C@@H](C)CC)[C@@H](C)CC)C(N)=O [C12-ER40] (H-REHKALKTLGIIC(Dodecyl)-NH2)"
assaytarget = "Go (Bos taurus, UniProt P08239)"
propertymeasured = "EC50"
measuredvalue = "3 to 10 µM"

[[record]]
molecule = "CC[C@H](C)[C@H](N)C(=O)N[C@@H](CC(N)=O)C(=O)N[C@@H](CC(C)C)C(=O)N[C@@H](CCCCN)C(=O)N[C@@H](C)C(=O)N[C@@H](CC(C)C)C(=O)N[C@@H](C)C(=O)N[C@@H](C)C(=O)N[C@@H](CC(C)C)C(=O)N[C@@H](C)C(=O)N[C@@H](CCCCN)C(=O)N[C@@H](CCCCN)C(=O)N[C@H](C(=O)N[C@@H](CC(C)C)C(N)=O)[C@@H](C)CC"
assaytarget = "Go (Bos taurus, UniProt P08239)"
propertymeasured = "EC50"
measuredvalue = "3 to 10 µM"

[[record]]
molecule = "CC[C@H](C)[C@H](N)C(=O)N[C@@H](CC(N)=O)C(=O)N[C@@H](Cc1ccc(O)cc1)C(=O)N[C@@H](CCCCN)C(=O)N[C@@H](C)C(=O)N[C@@H](CC(C)C)C(=O)N[C@@H](C)C(=O)N[C@@H](C)C(=O)N[C@@H](CC(C)C)C(=O)N[C@@H](C)C(=O)N[C@@H](CCCCN)C(=O)N[C@@H](CCCCN)C(=O)N[C@H](C(=O)N[C@@H](CC(C)C)C(N)=O)[C@@H](C)CC"
assaytarget = "Go (Bos taurus, UniProt P08239)"
propertymeasured = "EC50"
measuredvalue = "3 to 10 µM"

[[record]]
molecule = "CC[C@H](C)[C@H](N)C(=O)N[C@@H](CC(N)=O)C(=O)N[C@@H](CC(C)C)C(=O)N[C@@H](CCCCN)C(=O)N[C@@H](C)C(=O)N[C@@H](CC(C)C)C(=O)N[C@@H](C)C(=O)N[C@@H](C)C(=O)N[C@@H](CC(C)C)C(=O)N[C@@H](C)C(=O)N[C@@H](CCCCN)C(=O)N[C@@H](CCCCN)C(=O)N[C@@H](CC(C)C)C(=O)N[C@@H](CC(C)C)C(N)=O"
assaytarget = "Go (Bos taurus, UniProt P08239)"
propertymeasured = "EC50"
measuredvalue = "3 to 10 µM"

[[record]]
molecule = "CC[C@H](C)[C@H](N)C(=O)N[C@@H](CC(N)=O)C(=O)N[C@@H](CC(C)C)C(=O)N[C@@H](CCCCN)C(=O)N[C@@H](C)C(=O)N[C@@H](CC(C)C)C(=O)N[C@@H](C)C(=O)N[C@@H](C)C(=O)N[C@@H](CC(C)C)C(=O)N[C@@H](C)C(=O)N[C@@H](CCCCN)C(=O)N[C@@H](CCCCN)C(=O)N[C@@H](C)C(=O)N[C@@H](CC(C)C)C(N)=O"
assaytarget = "Go (Bos taurus, UniProt P08239)"
propertymeasured = "EC50"
measuredvalue = "10 to 30 µM"

[[record]]
molecule = "CC[C@H](C)[C@H](N)C(=O)N[C@@H](CC(N)=O)C(=O)N[C@@H](CC(C)C)C(=O)N[C@@H](CCCCN)C(=O)N[C@@H](C)C(=O)N[C@@H](CC(C)C)C(=O)N[C@@H](C)C(=O)N[C@@H](C)C(=O)N[C@@H](CC(C)C)C(=O)N[C@@H](C)C(=O)N[C@@H](CCCCN)C(=O)N[C@@H](CCCCN)C(=O)N[C@@H](CCCCN)C(=O)N[C@@H](CC(C)C)C(N)=O"
assaytarget = "Go (Bos taurus, UniProt P08239)"
propertymeasured = "EC50"
measuredvalue = "30 to 100 µM"


Origin of values: patent US5589568A
